Exercise: for every item that follows, state its recorded TGI.
test system: RPMI-8226 leukemia; assay: NCI tumour cell line growth inhibition, 48 h

IN: Report TGI for CC(C)(C)NC(=O)[C@H]1C[C@H]2CCCC[C@H]2CN1C[C@@H](O)[C@H](Cc1ccccc1)NC(=O)[C@H](CC(N)=O)NC(=O)c1ccc2ccccc2n1 please.
OUT: 14.8 µM

IN: Report TGI for COc1ccccc1Nc1nc(NNC(=O)Cc2ccccc2)nc(NNC(=O)c2ccncc2)n1 please.
OUT: > 10 µM

IN: Report TGI for c1ccc2c(c1)nc1n2CCSC1 please.
OUT: > 100 µM

IN: Report TGI for COc1cc(C2SCC(=O)N2c2ccc(Oc3ccc(Cl)cc3)c(Cl)c2)cc(OC)c1OC (stereo not drawn) please.
OUT: > 100 µM

IN: Report TGI for O=C([CH-]C(=O)C(F)(F)F)c1ccccc1.O=C([CH-]C(=O)C(F)(F)F)c1ccccc1.O=C([CH-]C(=O)C(F)(F)F)c1ccccc1.O=C([CH-]C(=O)C(F)(F)F)c1ccccc1.[Eu+3].c1ccncc1 please.
OUT: 35.3 µM

IN: Report TGI for C[C-](O)O.O/C(=C\[C-](O)c1ccccc1)c1ccccc1.O/C(=C\[C-](O)c1ccccc1)c1ccccc1.[Nd+3] (stereo not drawn) please.
OUT: 33.5 µM

IN: Report TGI for COc1cc(Cn2c(-c3nonc3N)nc3ccccc32)ccc1C please.
OUT: > 100 µM

IN: Report TGI for O=c1[nH]c(N/N=C\C(O)C(O)C(O)CO)nc2ccccc12 (stereo not drawn) please.
OUT: > 100 µM
